Attribution: PubChem BioAssay (NCI)

# Test system: NCI/ADR-RES ovarian
# protocol-text: NCI-60 one-dose screen, 48 h (100 = growth as untreated, 0 = no growth, -100 = all killed)
# condition-notes: 10 µM unless noted
About 83,000 compounds went through this panel and 20% of them were active in at least one assay; those are over-represented in the sample as a whole.
Catalogue of growth values
quantity-name: growth (%)

1) COC(=O)CCc1n(Cc2ccc3ccccc3c2)c2ccccc2[n+]1Cc1ccc2ccccc2c1 = 100
2) COc1ccc(/C=C/C(=O)Nc2ncnc3nc[nH]c23)cc1 = 96.6
3) CC1(c2ccccc2Cl)NC(=O)NC1=O (centres undefined) = 96.9
4) N#Cc1nc(-c2ccccc2)oc1S(=O)(=O)NCC(c1ccc(Cl)cc1)N1CCCCC1 (centres undefined) = 91.1
5) NS(=O)(=O)c1ccc(-n2nc(-c3ccccc3)ccc2=O)cc1 = 103
6) O=[N+]([O-])c1ccc(Oc2ccc(-c3ccccc3)cc2)cc1 = 91.8
7) COc1cc(/C=N/Nc2nc(-c3ccc(F)cc3)c(C#N)c(N3CCOCC3)n2)ccc1O = 102
8) COc1cc(/C=C/C(=O)/C=C/c2cc3ccc(Cl)cc3[nH]c2=O)ccc1O = 41
9) CC(=O)Nc1nc2c(c(N)c1C#N)C(c1cccc(Cl)c1)C1=C(CCCC1=O)N2c1sc2c(c1C#N)CCCC2 (centres undefined) = 46.7
10) Cc1cc(NC(=O)CNc2nc(Oc3ccc(F)cc3)nc(-c3ccc(F)cc3)n2)ccc1Cl = 101
11) N#Cc1c(-c2ccc(F)cc2)nc(N=Nc2c(O)[nH]c3ccc(Cl)cc23)nc1N1CCOCC1 = 16.4
12) O=C(CCc1nnc2sc(OCc3ccccc3)nn12)c1nc2ccc([N+](=O)[O-])cc2[nH]1 = 99
13) CC(C)C1=C[C@@]23CC[C@H]4[C@](C)(COCCC#N)CCC[C@]4(C)[C@H]2C[C@@H]1[C@@H]1[C@H]3[C@@H](OCCC#N)CC[C@@H]1OCCC#N = 27.8
14) O=C(O)C(C(=O)O)c1cccc2ccccc12 = 98.9
15) CCCn1c2cc(OCc3cn(-c4ccc(Cl)cc4)nn3)ccc2c2ccnc(C)c21 = 66.3
16) NS(=O)(=O)c1ccc(C2C3=C(CCCC3=O)OC3=C2C(=O)c2ccccc2C3=O)cc1 (centres undefined) = 56.9
17) NS(=O)(=O)c1ccc(-n2ncc(NC(=O)Nc3ccc(S(=O)(=O)Nc4nccs4)cc3)c2-c2ccccc2)cc1 = 105
18) COc1cc(-c2nn(-c3ccc(Br)cc3)cc2CO)ccc1O = 99.3
19) CCOC(=O)c1c(C)nc2c(c1N)/C(=C/c1ccc[nH]1)C(=O)N2Cc1ccc(C(F)(F)F)cc1 = 49.7

* * *

# Test system: NCI-H23 lung
# protocol-text: NCI-60 one-dose screen, 48 h (100 = growth as untreated, 0 = no growth, -100 = all killed)
# condition-notes: 10 µM unless noted
About 83,000 compounds went through this panel and 20% of them were active in at least one assay; those are over-represented in the sample as a whole.
Catalogue of growth values
quantity-name: growth (%)

1) COc1ccc(/C=C(/C(=O)N2CCCC2)c2cc(OC)c(OC)c(OC)c2)cc1 = 34
2) CC[C@]12C=CCN3CC[C@@]4(c5cc(NC(=O)CCC(=O)O[C@H]6CC[C@H]7[C@@H]8CC[C@H]9CC(=O)CC[C@]9(C)[C@H]8CC[C@]67C)c(OC)cc5N(C)[C@H]4[C@@](O)(C(=O)OC)[C@@H]1OC(C)=O)[C@@H]32 = 89.7
3) Cc1c(Br)cccc1NC(=O)c1sc2nc3c(cc2c1N)CN(Cc1ccccc1)CC3 = 40.7
4) C=C1C(=O)O[C@H]2[C@H]1CC/C(COC(=O)NCc1nc3ccccc3[nH]1)=C\CC[C@@]1(C)O[C@@H]21 = 87.2
5) COc1cc(/C=C/C(=O)/C=C/c2cc3ccc(Cl)cc3[nH]c2=O)ccc1O = 61.2
6) O=CN1N=C(c2ccc(F)cc2)CC1c1cccc(Nc2ccnc3cc(C(F)(F)F)ccc23)c1 (configuration not stated) = 42.5
7) C=C1C(=O)O[C@H]2[C@H]1CC/C(COC(=O)CCCCCCCC(=O)OC/C1=C/CC[C@@]3(C)O[C@H]3[C@H]3OC(=O)C(=C)[C@@H]3CC1)=C\CC[C@@]1(C)O[C@@H]21 = 2.7

* * *

# System: UACC-257 melanoma
# protocol-text: NCI-60 one-dose screen, 48 h
# condition-notes: 10 µM unless noted
Compounds without any hit were thinned out: in the full panel of roughly 83,000, 20% have a hit. Activity calls are given as the source filed them. How the source made its calls: active means growth percent below 10; inactive means the rest.
Outcome codes: 1 (active), 0 (inactive)

1) CC(=O)O[C@@H]1C[C@]2(C)[C@H]3[C@H](O)C[C@@H]4C5=CC(C)(C)CC[C@]5(C)CC[C@@]4(C)[C@]3(C)CC[C@H]2C(C)(C)[C@H]1O = 0
2) COc1ccc(C(C)c2cc(OC)c(OC)c(OC)c2)cc1 (stereo not given) = 0
3) Cc1ccc2nc3nc4ccc[nH]c4cc3c2c1 = 0
4) O=C(O)COc1ccc2c(=O)c3sc4c(=O)c5ccccc5c(=O)c4c3c(=O)c2c1 = 1
5) N#Cc1c(-c2ccc(F)cc2)nc(N=Nc2c(O)[nH]c3ccccc23)nc1N1CCOCC1 = 0
6) c1ccc2c3c([nH]c2c1)C(c1ccc(C2NCCc4c2[nH]c2ccccc42)cc1)NCC3 (stereo not given) = 1
7) CCCn1c2cc(OCc3cn(-c4ccc(Cl)cc4)nn3)ccc2c2ccnc(C)c21 = 0
8) FC(F)(F)c1ccc2c(Nc3cccc(C4CC(c5ccccc5)=NN4c4ccc(Cl)cc4)c3)ccnc2c1 (stereo not given) = 0
9) COc1ccc(-c2[nH]c3ccccc3c2C=C(C#N)C#N)cc1 = 0
10) O=C(CCc1nnco1)c1nc2ccc([N+](=O)[O-])cc2[nH]1 = 0

* * *

# Tested on: SF-295 CNS
# protocol-text: NCI-60 one-dose screen, 48 h (100 = growth as untreated, 0 = no growth, -100 = all killed)
# condition-notes: 10 µM unless noted
The panel holds about 83,000 compounds, 20% with a hit somewhere; the sample as a whole holds those more often.
quantity-name: growth (%)

1. CC(=O)OCC1SC(OC(C)=O)C(NC(=O)/C=C/CCl)C(OC(C)=O)C1OC(C)=O (stereo not drawn) = 111
2. [2H]c1nc(Nc2ncc3cc(C(=O)N(C)C)n(C4CCCC4)c3n2)c([2H])c([2H])c1N1C([2H])([2H])C([2H])([2H])NC([2H])([2H])C1([2H])[2H] = 72.1
3. COc1ccc(-c2cs/c(=N\N=C\c3ccc(O)cc3O)n2/N=C/c2ccc(O)cc2O)cc1 = -24.4
4. O=C(Nc1ccccc1)NS(=O)(=O)c1c[nH]c(=S)[nH]c1=O = 97.8
5. CCCCn1c(=O)c(/C=C/C(=O)/C=C/c2ccc(OC)cc2)cc2cc(Cl)ccc21 = 19.9
6. CCCCn1c(=O)c(/C=C/C(=O)/C=C/c2cc3ccccc3n(CCCC)c2=O)cc2ccccc21 = 3.65
7. COc1cc(C2CC(c3ccc(Nc4nc(NCCO)nc(NCCO)n4)cc3)=NN2c2cc(Cl)cc(Cl)c2)cc(OC)c1OC (stereo not drawn) = 6.18
8. CC1=C(CCCOC(=O)NCCCl)C2=C(C)C3(CC3)[C@@](C)(O)C(=O)C2=C1 = 1.44

* * *

# Test system: IGROV1 ovarian
# protocol-text: NCI-60 one-dose screen, 48 h (100 = growth as untreated, 0 = no growth, -100 = all killed)
# condition-notes: 10 µM unless noted
About 83,000 compounds went through this panel and 20% of them were active in at least one assay; those are over-represented in the sample as a whole.
quantity-name: growth (%)

1. COc1cc(-c2csc(NC(=O)Nc3ccc(Cl)cc3)n2)cc(OC)c1OC = 42.6
2. Nc1c(C(=O)c2ccccc2)sc2nc(-c3cc4ccccc4o3)cc(-c3ccc(Cl)cc3)c12 = 55.8
3. Cc1c(O)c(=O)ccn1-c1nc2ccccc2s1 = 109
4. C#CCOC(=O)[C@]1(C)CCC[C@]2(C)[C@H]3C[C@H]4C(C(C)C)=C[C@]3(CC[C@H]21)[C@@H]1C(=O)CCC(=O)[C@@H]14 = 78.3
5. C=C(C)[C@@H]1CC[C@]2(C(=O)O)CC[C@]3(C)[C@H](CC[C@@H]4[C@@]5(C)C[C@@H](CC#Cc6ccccc6C)C(=O)C(C)(C)[C@@H]5CC[C@]43C)[C@@H]12 = 62
6. N#Cc1c(-c2ccc(Cl)cc2)cc(-c2cc3ccccc3o2)nc1SCC(=O)c1ccc(Cl)cc1 = 71.5
7. Nc1ccc2c(c1)C(=O)C(=O)c1c-2nc2ccccn12 = -40.3
8. COC(=O)c1ccc2c(c1)n(Cc1ccc3ccccc3c1)c[n+]2Cc1ccc2ccccc2c1 = 4.97
9. Cc1cccc(C)c1NC(=O)CN(CC(C)C)CC(O)COc1ccccc1 (stereo not drawn) = 94.3
10. COc1ccc2c(c1)Oc1nc(N)c(C#N)c(N)c1C2Sc1ccc(SC)cc1 (stereo not drawn) = 0.493
11. COc1ccc(-n2cc(-c3ccc(Cl)c(Cl)c3)[nH]c2=O)cc1OC = 102
12. O=Cc1[nH]c(Sc2ccccc2)c2ccccc12 = 88.2
13. O=C1c2ccccc2C(=O)c2c1oc1c2c(=O)[nH]c2ccccc21 = 55.1
14. C=C(C)[C@@H]1CC[C@]2(C(=O)N3CCN(C)CC3)CC[C@]3(C)[C@H](CC[C@@H]4[C@@]5(C)C/C(=C/c6ccco6)C(=O)C(C)(C)[C@@H]5CC[C@]43C)[C@@H]12 = 90.1
15. Cc1cc(C)c(NC(=O)c2sc3nc4c(cc3c2N)CCCCCC4)c(C)c1 = 61.2
16. Oc1c(CCl)cc(Cl)cc1Cc1cc(Cl)cc(Cc2cc(Cl)cc(CCl)c2O)c1O = 37.8
17. COc1ccc(C(=O)c2cc(OC)c(OC)c(OC)c2)cc1OC(=O)C(Cl)(Cl)Cl = 15.9
18. COc1cc2cc(c1Cl)N(C)C(=O)C[C@H](OC(=O)[C@H](C)N(C)C(=O)CCS)C[C@]1(C)O[C@H]1[C@H](C)[C@@H]1C[C@@](O)(NC(=O)O1)[C@H](OC)/C=C/C=C(\C)C2 = 18.5
